Data origin: paper PMC9880438

test-summary: Stability of QC samples of the analytes in rat plasma under storage conditions
Assay type: physicochemical
condition: spiked 40 ng/mL, autosampler for 12 h, n = 6
Reported Measured concentration after storage values follow for various compounds
Use ng/mL as the unit, but write only the number.

// solved cases for Measured concentration after storage follow
* O=C(O)c1cc(O)c(O)c(O)c1 [Gallic acid, gallic acid] | 34.9
* O=C(O)C[C@H](C(=O)O)[C@H]1c2c(cc(O)c(O)c2O)C(=O)O[C@@H]1C(=O)O [Chebulic acid, chebulic acid] | 35.6
* O=C(O)C[C@@H]1C(=O)O[C@H]2[C@H](OC(=O)c3cc(O)c(O)c(O)c3)[C@@H](OC(=O)c3cc(O)c(O)c4c3[C@H]1[C@H](O)C(=O)O4)[C@H](OC(=O)c1cc(O)c(O)c(O)c1)O[C@@H]2COC(=O)c1cc(O)c(O)c(O)c1 [Chebulinic acid, chebulinic acid] | 42.2

**Query** Would you kindly share the measured Measured concentration after storage for O=C(O[C@@H]1O[C@@H]2COC(=O)c3cc(O)c(O)c(O)c3-c3c(cc(O)c(O)c3O)C(=O)O[C@H]([C@H]1O)[C@@H]2O)c1cc(O)c(O)c(O)c1 [Corilagin, corilagin] ?
**Result** 38.8

* * *

test-summary: Stability of QC samples of the analytes in rat plasma under storage conditions
Type: physicochemical
condition: spiked 400 ng/mL, autosampler for 12 h, n = 6
reported-property: Measured concentration after storage (ng/mL)
Use ng/mL as the unit, but write only the number.

// solved cases for Measured concentration after storage follow
- O=C(O[C@@H]1O[C@@H]2COC(=O)c3cc(O)c(O)c(O)c3-c3c(cc(O)c(O)c3O)C(=O)O[C@H]([C@H]1O)[C@@H]2O)c1cc(O)c(O)c(O)c1: 435.7
- O=C(O)C[C@@H]1C(=O)O[C@H]2[C@H](OC(=O)c3cc(O)c(O)c(O)c3)[C@@H](OC(=O)c3cc(O)c(O)c4c3[C@H]1[C@H](O)C(=O)O4)[C@H](OC(=O)c1cc(O)c(O)c(O)c1)O[C@@H]2COC(=O)c1cc(O)c(O)c(O)c1: 359.7
- O=C(O)C[C@H](C(=O)O)[C@H]1c2c(cc(O)c(O)c2O)C(=O)O[C@@H]1C(=O)O: 393.3

# evaluate next
**Query** Would you kindly share the measured Measured concentration after storage for O=C(O)c1cc(O)c(O)c(O)c1 ?
**Result** 431.7

* * *

test-summary: Stability of QC samples of the analytes in rat plasma under storage conditions
Type: physicochemical
condition: spiked 8,000 ng/mL, three freeze-thaw cycles, n = 6
Reported Measured concentration after storage values follow for various compounds

// solved cases for Measured concentration after storage follow
• O=C(O)c1cc(O)c(O)c(O)c1 [Gallic acid, gallic acid] = 8,222.3 ± 456.3 ng/mL
• O=C(O)C[C@@H]1C(=O)O[C@H]2[C@H](OC(=O)c3cc(O)c(O)c(O)c3)[C@@H](OC(=O)c3cc(O)c(O)c4c3[C@H]1[C@H](O)C(=O)O4)[C@H](OC(=O)c1cc(O)c(O)c(O)c1)O[C@@H]2COC(=O)c1cc(O)c(O)c(O)c1 [Chebulinic acid, chebulinic acid] = 8,447.4 ± 574.6 ng/mL
• O=C(O[C@@H]1O[C@@H]2COC(=O)c3cc(O)c(O)c(O)c3-c3c(cc(O)c(O)c3O)C(=O)O[C@H]([C@H]1O)[C@@H]2O)c1cc(O)c(O)c(O)c1 [Corilagin, corilagin] = 8,802.7 ± 713.0 ng/mL

# evaluate next
**Query** Would you kindly share the measured Measured concentration after storage for O=C(O)C[C@H](C(=O)O)[C@H]1c2c(cc(O)c(O)c2O)C(=O)O[C@@H]1C(=O)O [Chebulic acid, chebulic acid] ?
**Result** 7,691 ± 316.7 ng/mL
